The origin of these recorded values is ChEMBL document CHEMBL1201862.

- test description: NIH3T3 cell viability loss – ATP luminescence, mouse fibroblasts, counter-screen, dose response (AID 2010);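 also: cells exposed to compound for about 90 hours before reading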
- Assay type: functional, cell-based
Active and inactive are the calls of the source. Rule as the data show it: actives have a measured EC50 and inactives only a lower limit.
value kind: EC50

Annotate the compound `Cn1c(-c2c(N)n(CCCc3ccccc3)c3nc4ccccc4nc23)nc2ccccc21` with its measured EC50.
> 30 µM (not active)

Annotate the compound `CCCCNC(=O)/C(=C\c1ccc([N+](=O)[O-])o1)NC(=O)c1ccccc1` with its measured EC50.
> 60 µM (inconclusive)

Annotate the compound `Cc1cc(C)nc(SCC(=O)NC2=NN=C(c3ccc(Br)cc3)CS2)n1` with its measured EC50.
> 60 µM (inconclusive)

Annotate the compound `Cc1cc2[nH]c3c(c[n+](C)c4ccccc34)c2cc1C` with its measured EC50.
6.13 µM (active)

Annotate the compound `CCN(CC)c1ccc(/C=C2\SC(=O)N(C(C)C)C2=O)o1` with its measured EC50.
18.4 µM (active)
